- System Tested: MAT β subunit (regulatory β subunit, V1 form) (Homo sapiens, UniProt Q9NZL9, K163A/Y159F)
- Construct: full length V1 from GST fusion in E. coli, TEV-cut, GSH linker retained at N-terminus; monomer/dimer equilibrium
- Sequence (Q9NZL9 whole entry Y159F/K163A, the tested form may be a part): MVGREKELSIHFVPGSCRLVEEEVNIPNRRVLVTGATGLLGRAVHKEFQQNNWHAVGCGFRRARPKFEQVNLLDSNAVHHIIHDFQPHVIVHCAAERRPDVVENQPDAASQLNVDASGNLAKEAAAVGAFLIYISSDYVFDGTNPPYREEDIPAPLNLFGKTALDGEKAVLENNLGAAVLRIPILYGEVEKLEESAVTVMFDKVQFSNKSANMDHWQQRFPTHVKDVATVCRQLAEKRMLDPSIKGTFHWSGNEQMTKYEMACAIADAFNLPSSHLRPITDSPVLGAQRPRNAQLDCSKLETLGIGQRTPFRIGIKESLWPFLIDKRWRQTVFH
- Measurement Description: isothermal titration calorimetry
Measured Parameter: Kd

Compound Structure String: NC(=O)c1ccc[n+]([C@@H]2O[C@H](COP(=O)(O)OP(=O)(O)OC[C@H]3O[C@@H](n4cnc5c(N)ncnc54)[C@H](OP(=O)(O)O)[C@@H]3O)[C@@H](O)[C@H]2O)c1
System Tested: MAT β subunit (regulatory β subunit, V1 form) (Homo sapiens, UniProt Q9NZL9, K163A/Y159F)
Measured Parameter: Kd
Value Measured: > 150 µM
